# maps each entry to its Plant response rating, Barnyardgrass
# Tested on: barnyardgrass
# Protocol Description: Test C postemergence
# Assay type: in vivo, Echinochloa crus-galli
# Setup Conditions: 125 g ai/ha, postemergence; visual rating, scale 0 to 100 (0 no effect, 100 complete control)
The answer should be written as a number, with no unit following it.

For orientation, consider the following solved cases.
N#Cc1cccc(Oc2ncc(Cl)cn2)c1-n1cc(I)cn1	5
Fc1cccc(Oc2ncc(Cl)cn2)c1-n1cc(C2CC2)nn1	10
Cc1cnc(Oc2cccc(C#N)c2-n2cc(I)cn2)nc1	5
FCc1cccc(Oc2ncc(Br)cn2)c1-n1cc(C(F)(F)F)cn1	10
CCCOc1cnn(-c2c(C#N)cccc2Oc2ncc(Cl)cn2)c1	5

Ask: # Plant response rating, Barnyardgrass lookup, item "FCc1cn(-c2c(F)cccc2Oc2ncc(Cl)cn2)nn1"
Result: 20

Ask: I would be grateful if you could share the reported Plant response rating, Barnyardgrass for "FC(F)(F)c1cnn(-c2c(Cl)cccc2Oc2ncc(Cl)cn2)c1" .
Result: 10
